Please respond with reported EC50 for every item in the list.
tested on: Human alphaherpesvirus 3; assay: Effective concentration to show 50% of activity was measured on varicella zoster virus(VZV) cell culture; type: functional, organism-based; conditions: Human alphaherpesvirus 3

Q: Please report the recorded EC50 for O=c1[nH]c(=O)n([C@H]2CO[C@H](CO)O2)cc1/C=C/Br .
Ans: > 30 µM

Q: Item: O=c1[nH]c(=O)n([C@@H]2CO[C@@H](CO)O2)cc1/C=C/Br
Ans: > 30 µM

Q: Item: O=c1[nH]c(=O)n([C@H]2O[C@@H](CO)[C@H](O)[C@@H]2F)cc1/C=C/Br
Ans: > 50 µM

Q: Item: O=c1[nH]c(=O)n([C@@H]2CO[C@H](CO)O2)cc1/C=C/Br
Ans: 0.07 µM

Q: Item: O=c1[nH]c(=O)n([C@H]2O[C@@H](CO)[C@H](O)[C@H]2F)cc1/C=C/Br
Ans: > 50 µM

Q: Item: O=c1[nH]c(=O)n(C2CO[C@@H](CO)O2)cc1/C=C/Br (some centres undefined)
Ans: 26 µM

Q: Item: O=c1[nH]c(=O)n([C@H]2CO[C@H](CO)O2)cc1/C=C/I
Ans: > 30 µM

Q: Item: O=c1[nH]c(=O)n([C@H]2CO[C@H](CO)O2)cc1/C=C/Cl
Ans: > 30 µM

Q: Item: O=c1[nH]c(=O)n([C@@H]2CO[C@H](CO)O2)cc1/C=C/I
Ans: 0.035 µM
